The reported measurements were obtained from paper PMC7826789.

Measured Percent Control, listed per entry for reference.
- Test system: ACVR2B
- CONDITIONS USED: Compound Concentration (nM):1000;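 further: KINOMEscan scanMAX binding as percent activity remaining versus control; lower means stronger binding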
Express the result in % but write the number alone.

COc1ccc2c(-c3ccnc(Nc4cccc(OC(F)(F)F)c4)n3)cnn2n1 [GW810372X] : 100
COc1cc(C)c(N(C)C(=O)CN(C)C)cc1Nc1nc(Nc2cccc(F)c2C(N)=O)c2cc[nH]c2n1 : 100
COc1ccc(COc2ccc(Cc3cnc(N)nc3N)cc2OC)cc1 [GW632580X] : 100
CCn1c(-c2nonc2N)nc2c(C#CC(C)(C)O)nc(OCCNC)cc21.Cl : 99
COc1cc2ncnc(Nc3ccc4c(cnn4Cc4ccccc4)c3)c2cc1OC.Cl [GW282449A] : 100
NS(=O)(=O)c1ccc(N/N=C2\C(=O)Nc3ccc(C(=O)NCc4ccncc4)cc32)cc1 [GW300657X] : 100
CC1=C(C(=O)Nc2ccc3[nH]ncc3c2)C(c2ccc(Cl)c(Cl)c2)CC(=O)N1 (stereo not shown) [GSK299115A] : 69
C[C@@H](Oc1cc(-n2cnc3ccc(OC4CCN(C)CC4)cc32)sc1C(N)=O)c1ccccc1Cl [GSK579289A] : 60

# evaluate next
QUERY: Lab note: need Percent Control with ACVR2B for entry NS(=O)(=O)c1ccc(Nc2ncc(-c3ccccc3)o2)cc1 [GW572399X] , please look it up.
RESULT: 100

* * *

- Tested on: TTK
- CONDITIONS USED: Compound Concentration (nM):1000
# if measured Percent Control < 90%: 1.0  # else: 0.0

Cl.c1ccc(Cc2nc3ccc(Nc4ncnc5ccccc45)cc3[nH]2)cc1 [GR269666A] : 1.0
NS(=O)(=O)c1ccc(N/N=C2\C(=O)Nc3ccc(C(=O)NCc4ccncc4)cc32)cc1 [GW300657X] : 1.0
CN(C)CCNC(=O)Nc1ccc(N(C)c2ccnc(Nc3ccc(CS(C)(=O)=O)cc3)n2)cc1.Cl [GW830900A] : 1.0

QUERY: Bench note: check whether COc1cc2ncnc(Nc3ccc4c(cnn4Cc4ccccc4)c3)c2cc1OC.Cl [GW282449A] shows Percent Control below 90%
RESULT: 0.0

QUERY: Further, for COc1cc(C)c(N(C)C(=O)CN(C)C)cc1Nc1nc(Nc2cccc(F)c2C(N)=O)c2cc[nH]c2n1 ?
RESULT: 1.0

QUERY: Further, for NS(=O)(=O)c1ccc(Nc2ncc(-c3ccccc3)o2)cc1 [GW572399X] ?
RESULT: 1.0

QUERY: Further, for COc1cc2ncn(-c3cc(O[C@H](C)c4ccccc4Cl)c(C(N)=O)s3)c2cc1OC [GSK237701A] ?
RESULT: 1.0

QUERY: Further, for COc1cccc(-c2c[nH]c3c(N/N=C/c4ccncc4)ncnc23)c1 [GW814408X] ?
RESULT: 1.0

QUERY: Further, for CCS(=O)(=O)c1ccc(OC)c(Nc2ncc(-c3cccc(F)c3)o2)c1 [GW621970X] ?
RESULT: 0.0

* * *

- Tested on: PIK3CA(H1047L)
- CONDITIONS USED: Compound Concentration (nM):1000
Measured Percent Control, listed per entry for reference.
Express the result in % but write the number alone.

Use these answered entries as a reference point.
Cc1cc(O)cc(C)c1/C=C/c1cncc(C(N)=O)c1 [GW435821X] : 100
CN(C)c1cc2c(Nc3ccc4c(cnn4Cc4ccccc4)c3)ncnc2cn1 [GW282974X] : 88
O=C(Nc1n[nH]c2nc(-c3ccc(O)cc3)c(Br)cc12)C1CC1 [SB-725317] : 100
Cl.O=S1CCN(Cc2ccc(-c3ccc4ncnc(Nc5ccc(OCc6ccccc6)c(F)c5)c4c3)o2)CC1 [GW576924A] : 100

# evaluate next
QUERY: What does the data say about its Percent Control? Entry: CN(C)CCNC(=O)Nc1ccc(N(C)c2ccnc(Nc3ccc(CS(C)(=O)=O)cc3)n2)cc1.Cl [GW830900A]
RESULT: 100

* * *

- Tested on: EPHA2
- CONDITIONS USED: Compound Concentration (nM):1000
METRIC: Percent Control (%)
Express the result in % but write the number alone.

Use these answered entries as a reference point.
Cl.O=S1CCN(Cc2ccc(-c3ccc4ncnc(Nc5ccc(OCc6ccccc6)c(F)c5)c4c3)o2)CC1 [GW576924A] : 100
CN1CCN(C(=O)c2ccc(NC(=O)Nc3ccc(N(C)c4ccnc(Nc5ccc(CS(C)(=O)=O)cc5)n4)cc3)cc2)CC1.Cl [GW830263A] : 85

QUERY: What does the data say about its Percent Control? Entry: COc1cccc(-c2c[nH]c3c(N/N=C/c4ccncc4)ncnc23)c1 [GW814408X]
RESULT: 96

QUERY: Further, for NS(=O)(=O)c1ccc(N/N=C2\C(=O)Nc3ccc(C(=O)NCCc4c[nH]cn4)cc32)cc1 [GW300660X] ?
RESULT: 100

QUERY: Further, for Nc1ncnc2occ(-c3ccc(NC(=O)Nc4cc(C(F)(F)F)ccc4F)cc3)c12 [GW770249X] ?
RESULT: 13

* * *

- Tested on: CSF1R-autoinhibited
- CONDITIONS USED: Compound Concentration (nM):1000
Measured Percent Control, listed per entry for reference.
Express the result in % but write the number alone.

COc1cc2ncnc(Nc3ccc4c(cnn4Cc4ccccc4)c3)c2cc1OC.Cl [GW282449A] : 100
COc1cccc(-n2ncc3c(N/N=C/c4ccncc4)ncnc32)c1 [GW784752X] : 96
COC(=O)Nc1nc2ccc(Oc3ccc(NC(=O)Nc4cc(C(F)(F)F)ccc4F)cc3)cc2s1.Cl [GW693917A] : 86
COc1cc(/C=N/Nc2ncnc3[nH]ncc23)ccc1O [GW578748X] : 56
CC(C)COC(=O)c1ccc2c(c1)/C(=C/Nc1ccc(S(N)(=O)=O)cc1)C(=O)N2 [GW416981X] : 95
Cl.c1ccc(Cc2nc3ccc(Nc4ncnc5ccccc45)cc3[nH]2)cc1 [GR269666A] : 100
COc1ccccc1-c1cc(/C=C2\C(=O)Nc3ncc(Br)cc32)cc(Br)c1O [GW442130X] : 100
O=C(Nc1n[nH]c2nc(-c3ccc(O)cc3)c(Br)cc12)C1CC1 : 96
CC1=C(C(=O)Nc2ccc3[nH]ncc3c2)C(c2ccc(Cl)c(Cl)c2)CC(=O)N1 (stereo not drawn) [GSK299115A] : 74
Cl.O=C(Nc1ccc(Oc2ccc3[nH]c(NC(=O)c4ccco4)nc3c2)cc1)Nc1cc(C(F)(F)F)ccc1F [GW683134A] : 79

QUERY: What does the data say about its Percent Control? Entry: O=C1Nc2ccc(C(=O)c3ccco3)cc2C1=Cc1cc(Cl)c(O)c(Cl)c1 [GW406108X]
RESULT: 61

QUERY: Further, for CCS(=O)(=O)c1ccc(OC)c(Nc2ncc(-c3cccc(OC)c3)o2)c1 [GW580509X] ?
RESULT: 43

QUERY: Further, for C/C(Nc1ccc(S(N)(=O)=O)cc1)=C1/C(=O)Nc2ccccc21 [GW335962X] ?
RESULT: 40

QUERY: Further, for COc1cc2ncn(-c3cc(O[C@H](C)c4ccccc4Cl)c(C(N)=O)s3)c2cc1OC [GSK237701A] ?
RESULT: 70

QUERY: Further, for Nc1ncnc2occ(-c3ccc(NC(=O)Nc4cc(C(F)(F)F)ccc4F)cc3)c12 [GW770249X] ?
RESULT: 25

QUERY: Further, for C[C@@H](Oc1cc(-n2cnc3ccc(OC4CCN(C)CC4)cc32)sc1C(N)=O)c1ccccc1Cl [GSK579289A] ?
RESULT: 73

QUERY: Further, for Cc1cc(O)cc(C)c1/C=C/c1cncc(C(N)=O)c1 [GW435821X] ?
RESULT: 87

QUERY: Further, for COc1ccc2c(-c3ccnc(Nc4cccc(OC(F)(F)F)c4)n3)cnn2n1 [GW810372X] ?
RESULT: 86

* * *

- Tested on: FGFR4
- CONDITIONS USED: Compound Concentration (nM):1000
Measured Percent Control, listed per entry for reference.
Express the result in % but write the number alone.

Use these answered entries as a reference point.
C/C(Nc1ccc(S(N)(=O)=O)cc1)=C1/C(=O)Nc2ccccc21 [GW335962X] : 100
Cl.O=S1CCN(Cc2ccc(-c3ccc4ncnc(Nc5ccc(OCc6ccccc6)c(F)c5)c4c3)o2)CC1 [GW576924A] : 100
COc1ccc2[nH]c3c4[nH]c5ccc(OC)cc5c4c4c(c3c2c1)C(=O)NC4=O [GW296115X] : 85

QUERY: What does the data say about its Percent Control? Entry: COc1cc2ncnc(Nc3ccc4c(cnn4Cc4ccccc4)c3)c2cc1OC.Cl [GW282449A]
RESULT: 100

QUERY: Further, for CN(C)CCNC(=O)Nc1ccc(N(C)c2ccnc(Nc3ccc(CS(C)(=O)=O)cc3)n2)cc1.Cl [GW830900A] ?
RESULT: 100

QUERY: Further, for NS(=O)(=O)c1ccc(N/N=C2\C(=O)Nc3ccc(C(=O)NCCc4c[nH]cn4)cc32)cc1 [GW300660X] ?
RESULT: 100

QUERY: Further, for COC(=O)Nc1nc2ccc(Oc3ccc(NC(=O)Nc4cc(C(F)(F)F)ccc4F)cc3)cc2s1.Cl [GW693917A] ?
RESULT: 91

QUERY: Further, for Cl.O=C(Nc1ccc(Oc2ccc3[nH]c(NC(=O)c4ccco4)nc3c2)cc1)Nc1cc(C(F)(F)F)ccc1F [GW683134A] ?
RESULT: 100
